Sourced from ChEMBL document CHEMBL3871282

- ASSAY METHOD TEXT: Cytotoxicity against human HepG2 cells assessed as cell growth inhibition after 24 hrs by MTT assay
- Type: functional, cell-based
- ASSAY CONTEXT: HepG2, 24 h
PROPERTY NAME: pIC50
When answering, recall that pIC50 equals minus log10 of the concentration in mol/L, and write that number alone.

// worked examples, pIC50 included
Ask: Given the entry CCCC(=O)Oc1cc(=O)[nH]c2c1ccc1ccccc12 , report its measured pIC50.
Result: 4.45

Ask: Dear colleague, I am looking for the recorded pIC50 of the following molecule: O=C(Oc1cc(=O)[nH]c2c1ccc1ccccc12)c1ccccc1
Result: 4.08

Ask: State the recorded pIC50 for this entry: O=C(Oc1cc(=O)[nH]c2c1ccc1ccccc12)c1ccc([N+](=O)[O-])cc1
Result: 3.99

Ask: GET /values?readout=pIC50&item= O=C(Oc1cc(=O)[nH]c2c1ccc1ccccc12)c1ccc(F)cc1F
Result: 4.17

Ask: Query: pIC50; subject: O=c1cc(OCc2ccccc2)c2ccc3ccccc3c2[nH]1
Result: 4.43

Further cases:
Ask: Which measured pIC50 value corresponds to CCC(=O)Oc1cc(=O)[nH]c2c1ccc1ccccc12 ?
Result: 4.26

Ask: Any idea what pIC50 was measured for O=C(/C=C/c1ccc([N+](=O)[O-])cc1)Oc1cc(=O)[nH]c2c1ccc1ccccc12 ?
Result: 4.00

Ask: I am curious: what pIC50 value has been reported for CC(C)CC(=O)Oc1cc(=O)[nH]c2c1ccc1ccccc12 ?
Result: 4.14

----------
- ASSAY METHOD TEXT: Cytotoxicity against human HepG2 cells assessed as cell growth inhibition after 24 hrs by MTT assay
- Assay type: functional, cell-based
- ASSAY CONTEXT: HepG2, 24 h
Reported IC50 values follow for various compounds
The figure you give is taken to be in µM; do not add the unit.

Solved cases (2 shown):
Ask: What does the record list as IC50 for COc1ccc(COc2cc(=O)[nH]c3c2ccc2ccccc23)cc1 ?
Result: 42.2

Ask: Reported IC50 for O=c1cc(OCc2nc3ccccc3[nH]2)c2ccc3ccccc3c2[nH]1 : what is it?
Result: 44.2

New cases:
Ask: GET /values?readout=IC50&item= O=c1cc(OCc2ccc([N+](=O)[O-])cc2)c2ccc3ccccc3c2[nH]1
Result: 41.3

----------
- ASSAY METHOD TEXT: Cytotoxicity against human SKBR3 ER negative, PR negative,HER2 positive cells assessed as cell growth inhibition after 24 hrs by MTT assay
- Type: functional, cell-based
- ASSAY CONTEXT: SK-BR-3, 24 h
// returns not fulfilled unless IC50 is strictly below 40 µM, in which case fulfilled

Ask: Problem: For the compound O=c1cc(OCc2ccccc2)c2ccc3ccccc3c2[nH]1 , is IC50 under 40 µM?
Result: fulfilled

Ask: Dear colleague, could you confirm whether IC50 of O=C(Oc1cc(=O)[nH]c2c1ccc1ccccc12)c1ccc(F)cc1F falls below 40 µM? Thanks.
Result: not fulfilled

Ask: Dear reviewer, please state whether O=c1cc(OCc2nc3ccccc3[nH]2)c2ccc3ccccc3c2[nH]1 has IC50 strictly beneath 40 µM.
Result: fulfilled

Ask: Here's an entry: COc1ccc(COc2cc(=O)[nH]c3c2ccc2ccccc23)cc1 . Is its IC50 below 40 µM?
Result: fulfilled

Ask: Is IC50 of O=C(Oc1cc(=O)[nH]c2c1ccc1ccccc12)c1ccc([N+](=O)[O-])cc1 strictly below 40 µM?
Result: not fulfilled

Ask: IC50 strictly < 40 µM for this compound? O=C(/C=C/c1ccc([N+](=O)[O-])cc1)Oc1cc(=O)[nH]c2c1ccc1ccccc12
Result: fulfilled

More entries:
Ask: # strict comparison: is reported IC50 < 40 µM? input = O=c1cc(OS(=O)(=O)c2ccc(F)cc2)c2ccc3ccccc3c2[nH]1
Result: not fulfilled

Ask: # check: IC50 < 40 µM for CCCC(=O)Oc1cc(=O)[nH]c2c1ccc1ccccc12
Result: fulfilled

Ask: Is IC50 strictly under 40 µM for the entry O=c1cc(OS(=O)(=O)c2ccc(C(F)(F)F)cc2)c2ccc3ccccc3c2[nH]1 ?
Result: not fulfilled

Ask: Please check: IC50 for O=C(Oc1cc(=O)[nH]c2c1ccc1ccccc12)c1ccccc1 , strictly under 40 µM or not?
Result: not fulfilled

Ask: Hi there! Is IC50 for O=c1cc(OCc2ccc([N+](=O)[O-])cc2)c2ccc3ccccc3c2[nH]1 below 40 µM, do you know?
Result: fulfilled

Ask: Confirm or reject: IC50 of CCC(=O)Oc1cc(=O)[nH]c2c1ccc1ccccc12 lies strictly below 40 µM
Result: fulfilled
